- ASSAYED SYSTEM: human full-length recombinant PKC βII (Homo sapiens)
- Construct: Active human full-length recombinant PKC βII; purchased Invitrogen GmbH, Darmstadt, Germany
- Sequence (P05771 1-673 isoform P05771-2): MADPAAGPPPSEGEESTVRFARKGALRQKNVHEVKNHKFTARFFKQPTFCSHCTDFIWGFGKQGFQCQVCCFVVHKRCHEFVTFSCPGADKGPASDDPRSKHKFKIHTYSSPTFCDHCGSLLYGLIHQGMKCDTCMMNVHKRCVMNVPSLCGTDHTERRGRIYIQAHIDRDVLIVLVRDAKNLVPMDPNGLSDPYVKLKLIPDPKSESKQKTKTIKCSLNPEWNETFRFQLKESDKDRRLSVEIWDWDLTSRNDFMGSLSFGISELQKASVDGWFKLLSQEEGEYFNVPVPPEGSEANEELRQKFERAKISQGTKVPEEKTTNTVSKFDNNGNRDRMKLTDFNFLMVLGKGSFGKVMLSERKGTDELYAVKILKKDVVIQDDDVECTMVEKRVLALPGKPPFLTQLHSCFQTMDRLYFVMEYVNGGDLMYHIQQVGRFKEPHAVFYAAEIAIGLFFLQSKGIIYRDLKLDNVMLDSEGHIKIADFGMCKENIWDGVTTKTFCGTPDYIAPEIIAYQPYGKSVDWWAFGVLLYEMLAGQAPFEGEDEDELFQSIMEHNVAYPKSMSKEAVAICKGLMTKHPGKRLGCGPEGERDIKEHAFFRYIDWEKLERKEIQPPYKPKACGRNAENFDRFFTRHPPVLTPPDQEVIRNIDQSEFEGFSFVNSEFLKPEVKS
- ASSAY COMMENT: Determination of PKC βII inhibition (Caliper mobility-shift kinase assay, Fluorescein-RFARKGSLRQKNV peptide substrate)
- Format: biochemical
- MEASUREMENT CONDITIONS: example compounds at a final concentration of 1.14 μM (±0.15 μM)
Measured inhibition at 1.14 µM, listed per entry for reference.
Numeric answer only, unit % assumed.

compound="Cc1n[nH]c2nc(-c3ccc(O)cc3)cc(C(=O)NCC(C)(CN3CCCC3)c3ccccn3)c12 (stereo not shown) [Example 286]" assayed_system="human full-length recombinant PKC βII (Homo sapiens)" measure="inhibition at 1.14 µM" numeric_readout=62
compound="CCc1n[nH]c2nc(-c3ccc(O)cc3)cc(C(=O)NC3CC4CCC(C3)N4C)c12 (stereo not shown) [Example 163]" assayed_system="human full-length recombinant PKC βII (Homo sapiens)" measure="inhibition at 1.14 µM" numeric_readout=57
compound="CCC(CCN)NC(=O)c1cc(-c2ccc(O)cc2F)nc2[nH]nc(C)c12 (stereo not shown) [Example 65]" assayed_system="human full-length recombinant PKC βII (Homo sapiens)" measure="inhibition at 1.14 µM" numeric_readout=94
compound="Cc1n[nH]c2nc(-c3ccc(O)c(F)c3)cc(C(=O)N3CC(=O)NC(C(C)C)C3)c12 (stereo not shown) [Example 368]" assayed_system="human full-length recombinant PKC βII (Homo sapiens)" measure="inhibition at 1.14 µM" numeric_readout=58
compound="Cc1n[nH]c2nc(-c3ccc(O)c(F)c3)cc(C(=O)NC3CN4CCC3CC4)c12 (stereo in doubt) [Example 317]" assayed_system="human full-length recombinant PKC βII (Homo sapiens)" measure="inhibition at 1.14 µM" numeric_readout=68

In: Name the recorded inhibition at 1.14 µM for CCC[C@@H]1CN(C(=O)c2cc(-c3ccc(O)c(F)c3)nc3[nH]nc(C)c23)CCN1 [Example 291] .
Out: 89

In: So what's the measured inhibition at 1.14 µM for this one? Cc1n[nH]c2nc(-c3ccc(O)c(F)c3)cc(C(=O)N3CCOC4(CCNCC4)C3)c12 [Example 344]
Out: 64

In: # query: inhibition at 1.14 µM of entry Cc1n[nH]c2nc(-c3ccc(O)cc3)cc(C(=O)N3CCNCC3c3ccc(Cl)c(Cl)c3)c12 (stereo not shown) [Example 29]
Out: 99

In: I'd like to know its inhibition at 1.14 µM. The compound in question is COC(=O)CC1CNCCN1C(=O)c1cc(-c2ccc(O)c(F)c2)nc2[nH]nc(C)c12 (stereo not shown) [Example 353]
Out: 70

In: Requested read-out: inhibition at 1.14 µM. Entry: Cc1n[nH]c2nc(-c3ccc(O)cc3)cc(C(=O)NCC3(N)CCCCCC3)c12 [Example 116]
Out: 76

In: // returns reported inhibition at 1.14 µM for input CCC[C@@H]1CN(C(=O)c2cc(-c3ccc(O)cc3)nc3[nH]nc(C)c23)CCN1 [Example 195]
Out: 95

In: Which inhibition at 1.14 µM is reported for this compound? Cc1n[nH]c2nc(-c3ccc(O)cc3)cc(C(=O)NC3CCCN(C)C3)c12 (stereo not shown) [Example 275]
Out: 89

meta.source: patent US8686150B2
